Tested on: corn (Zea mays L.)
Assay: Test Example 2: soil application on the day after sowing, corn
Assay type: in vivo
Conditions: Zea mays, 250 g/ha active ingredient, observed 19th to 28th day after application, read-out: Growth inhibition rate (%) Corn
inhibition at 250 g/ha values, listed per item
Mention the unit after the number when you answer.

A selection of reference data follows.
Form entry - test system: corn (Zea mays L.); read-out: inhibition at 250 g/ha; compound: COc1c(S(C)(=O)=O)ccc(C(=O)c2cnn(C)c2O)c1C
20%

Now give it for Cc1c(C(=O)c2cnn(C)c2O)ccc(S(C)(=O)=O)c1C#N too.
0%

Now give it for Cc1c(C(=O)c2cnn(C)c2O)ccc(S(C)(=O)=O)c1OC(F)F too.
0%

Now give it for CCn1ncc(C(=O)c2ccc(S(C)(=O)=O)c(OCCC3OCCO3)c2Cl)c1O too.
0%

Now give it for Cn1ncc(C(=O)c2ccc(S(C)(=O)=O)c(Cl)c2Cl)c1O too.
0%

Now give it for CCOc1c(S(C)(=O)=O)ccc(C(=O)c2cnn(C)c2O)c1C too.
0%

Now give it for COCCOc1c(S(C)(=O)=O)ccc(C(=O)c2cnn(C)c2O)c1C too.
0%

Now give it for COC(COc1c(S(C)(=O)=O)ccc(C(=O)c2cnn(C)c2O)c1C)OC too.
0%

Now, please, on to the next compound.
Form entry - test system: corn (Zea mays L.); read-out: inhibition at 250 g/ha; compound: COC(=O)c1c(S(C)(=O)=O)ccc(C(=O)c2cnn(C)c2O)c1C
0%
